Biological target: Beta-2 adrenergic receptor (Homo sapiens, UniProt P07550)
Sequence (P07550 whole entry, looked up): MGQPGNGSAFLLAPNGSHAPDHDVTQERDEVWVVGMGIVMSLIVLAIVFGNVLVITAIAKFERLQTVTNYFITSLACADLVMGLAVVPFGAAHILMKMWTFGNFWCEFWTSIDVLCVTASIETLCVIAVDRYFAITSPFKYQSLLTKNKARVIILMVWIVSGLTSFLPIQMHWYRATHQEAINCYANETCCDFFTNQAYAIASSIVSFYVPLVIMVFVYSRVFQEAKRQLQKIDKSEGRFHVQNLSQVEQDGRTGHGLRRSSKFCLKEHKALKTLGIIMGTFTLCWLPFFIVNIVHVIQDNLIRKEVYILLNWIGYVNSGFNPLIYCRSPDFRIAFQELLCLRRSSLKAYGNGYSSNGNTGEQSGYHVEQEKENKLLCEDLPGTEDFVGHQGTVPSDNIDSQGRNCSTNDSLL
Test: Displacement of [3H](-)CGP 12177 from human recombinant beta2 adrenoceptor after 120 mins by scintillation counting method relative to parent compound
MEASURED_PROPERTY: fold change (FC)

CC(C)NCC(O)COc1ccccc1CCCSCC(=O)NCCOCCOCCNC(=O)C1C(C(=O)O)C(C(=O)O)C1C(=O)O (centres undefined): 24.6
C=CCc1ccccc1OCC(O)CNCCOCCOCCOCCOCCNC(=O)CS(=O)(=O)O (centres undefined): 150
CC(C)NCC(O)COc1ccccc1CCCSCC(=O)NCCOCCOCCNC(=O)CCCCCC1(C)C(/C=C/C=C/C=C2/N(CCCS(=O)(=O)O)c3ccc(S(=O)(=O)O)cc3C2(C)C)=[N+](CCCS(=O)(=O)[O-])c2ccc(S(=O)(=O)O)cc21 (centres undefined): 1.73

// query fold change (FC) value for entry CC(C)NCC(O)COc1ccccc1CCCSCC(=O)NCCOCCOCCNC(=O)OC(C)(C)C (centres undefined)
0.21
